In this section, each of the molecules is paired with its reported IC50.
Target: human PI 3-kinase p120γ (Homo sapiens)
Construct: purchased Millipore Corporation
Experiment: PI 3-kinase p120γ enzyme activity inhibition test
Format: biochemical
Conditions: ATP 10.0 μM, PIP2-PS 5.0 μM, 30° C., 2 hours; read-out: PI3Kγ (IC50 value class)

Solved entries (count: 10):
COC(Cc1noc(-c2sc(NC(C)=O)nc2C)n1)OC [Example 52] | 0.5 to 10 µM
CC(=O)Nc1nc(C)c(-c2nc(CC(O)CC(F)(F)F)no2)s1 (centres unmarked) [Example 67] | 0.1 to 0.5 µM
Cc1nc(NC(=O)NCCC(=O)N2CCNCC2)sc1-c1nc(CC(F)(F)F)no1 [Example 169] | < 0.1 µM
Cc1nc(NC(=O)NCCC(=O)NC(C)(CO)CO)sc1-c1nc(-c2cccnc2)no1 [Example 152] | < 0.1 µM
Cc1nc(NC(=O)NCCC(=O)OC(C)(C)C)sc1-c1nc(CC(C)(C)O)no1 [Example 170] | < 0.1 µM
CC(=O)Nc1nc(C)c(-c2nc(-c3cccc(O)c3)no2)s1 [Example 27] | < 0.1 µM
Cc1nc(NC(=O)NCCC(=O)OC(C)(C)C)sc1-c1nc(-c2cccnc2)no1 [Example 117] | < 0.1 µM
CC(=O)Nc1nc(C)c(-c2nc(CC(C)(C)C(=O)O)no2)s1 [Example 108] | < 0.1 µM
COCCNC(=O)CCNC(=O)Nc1nc(C)c(-c2nc(CC(F)(F)F)no2)s1 [Example 167] | < 0.1 µM
COCCc1noc(-c2sc(NC(C)=O)nc2C)n1 [Example 22] | 0.1 to 0.5 µM

Okay, next one:
What IC50 value was documented for this molecule, Cc1nc(NC(=O)NCCC(=O)NC(C)(C)CO)sc1-c1nc(-c2cccnc2)no1 [Example 149] ?
< 0.1 µM

----------
Target: human PI 3-kinase p120γ (Homo sapiens)
Construct: purchased Millipore Corporation
Test: PI 3-kinase p120γ enzyme activity inhibition test
Type: biochemical
Conditions: ATP 10.0 μM, PIP2-PS 5.0 μM, 30° C., 2 hours; read-out: PI3Kγ (IC50 value class)
pIC50: −log10 of the molar value.
measurement_type: pIC50

COc1ccc(-c2noc(-c3sc(NC(C)=O)nc3C)n2)cn1 [Example 4] | > 7.00

Item Cc1nc(NC(=O)NCCCOC(C)(C)C)sc1-c1nc(CC(C)(C)CO)no1 [Example 160] with human PI 3-kinase p120γ (Homo sapiens) - pIC50?
> 7.00

----------
In this section, each of the compounds is paired with its reported IC50.
Molecular target: human PI 3-kinase p120γ (Homo sapiens, UniProt P48736)
Construct: purchased Millipore Corporation
Sequence (P48736 whole entry): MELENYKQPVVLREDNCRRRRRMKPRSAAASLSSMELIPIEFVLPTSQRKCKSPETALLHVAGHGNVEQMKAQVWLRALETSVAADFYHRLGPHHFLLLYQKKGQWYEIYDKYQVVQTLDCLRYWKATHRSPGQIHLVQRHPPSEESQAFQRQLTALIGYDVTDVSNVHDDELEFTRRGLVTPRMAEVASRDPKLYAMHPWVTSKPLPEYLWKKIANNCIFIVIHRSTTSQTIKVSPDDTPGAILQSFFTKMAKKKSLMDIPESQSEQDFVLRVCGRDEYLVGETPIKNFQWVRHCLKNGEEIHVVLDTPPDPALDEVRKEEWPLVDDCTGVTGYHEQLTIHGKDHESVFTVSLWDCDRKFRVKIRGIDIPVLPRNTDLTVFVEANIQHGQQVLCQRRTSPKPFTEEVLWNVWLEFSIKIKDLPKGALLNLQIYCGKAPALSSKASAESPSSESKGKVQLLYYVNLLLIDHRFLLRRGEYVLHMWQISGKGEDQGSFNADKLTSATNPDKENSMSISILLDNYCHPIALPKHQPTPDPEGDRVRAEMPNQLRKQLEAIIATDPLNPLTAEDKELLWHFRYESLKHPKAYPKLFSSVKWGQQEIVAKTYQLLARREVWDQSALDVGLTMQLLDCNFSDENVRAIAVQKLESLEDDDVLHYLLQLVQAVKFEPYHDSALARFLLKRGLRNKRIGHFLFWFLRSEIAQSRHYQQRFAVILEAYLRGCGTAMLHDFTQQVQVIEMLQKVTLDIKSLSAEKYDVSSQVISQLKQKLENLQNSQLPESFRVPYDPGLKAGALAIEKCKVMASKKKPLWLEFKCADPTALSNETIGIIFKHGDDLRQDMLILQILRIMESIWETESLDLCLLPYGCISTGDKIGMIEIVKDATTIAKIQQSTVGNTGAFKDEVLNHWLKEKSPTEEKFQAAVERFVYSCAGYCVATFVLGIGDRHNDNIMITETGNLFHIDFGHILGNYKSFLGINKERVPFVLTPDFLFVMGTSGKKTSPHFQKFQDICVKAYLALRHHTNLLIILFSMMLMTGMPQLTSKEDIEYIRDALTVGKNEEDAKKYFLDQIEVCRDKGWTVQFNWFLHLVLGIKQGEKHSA
Assay: PI 3-kinase p120γ enzyme activity inhibition test
Format: biochemical
Conditions: ATP 10.0 μM, PIP2-PS 5.0 μM, 30° C., 2 hours; read-out: PI3Kγ (IC50 value class)

Solved entries (count: 5):
Cc1nc(NC(=O)NCCN)sc1-c1nc(-c2cccnc2)no1 [Example 138] | < 100 nM
COCC(=O)Nc1nc(C)c(-c2nc(-c3cccc(CO)c3)no2)s1 [Example 173] | < 100 nM
CC(=O)Nc1nc(C)c(-c2nc(C[C@H](C)CO)no2)s1 [Example 62] | < 100 nM
CC(=O)Nc1nc(C)c(-c2nc(N3CC[C@H](O)C3)no2)s1 [Example 102] | 100 to 500 nM
CC(=O)Nc1nc(C)c(-c2nc(C3CCOC3)no2)s1 (stereo not drawn) [Example 63] | < 100 nM

What IC50 value was documented for this compound, CC(=O)Nc1nc(C)c(-c2nc(CN3CCOCC3)no2)s1 [Example 75] ?
500 to 10000 nM
